Assay read-out Ki on Carbonic anhydrase 9 (Homo sapiens); records merged from the literature.
Value expressed in µM; do not type the unit.

COMPOUND: C#CCOc1c(/C=N/Cc2ccc(S(N)(=O)=O)cc2)cccc1OC
SYSTEM TESTED: Carbonic anhydrase 9 (Homo sapiens)
UNIT OF MEASUREMENT: µM
RECORDED MEASUREMENT: 1.19
//
COMPOUND: NS(=O)(=O)c1ccc(-n2cc(COC(=O)c3ccc4c(c3)C(=O)N(c3ccccc3)C4=O)nn2)cc1
SYSTEM TESTED: Carbonic anhydrase 9 (Homo sapiens)
UNIT OF MEASUREMENT: µM
RECORDED MEASUREMENT: 0.0183
//
COMPOUND: NS(=O)(=O)c1ccc(NC(=O)Nc2ccc(/N=C3\C(=O)Nc4ccc(Cl)cc43)cc2)cc1
SYSTEM TESTED: Carbonic anhydrase 9 (Homo sapiens)
UNIT OF MEASUREMENT: µM
RECORDED MEASUREMENT: 7430

input: Query Ki on Carbonic anhydrase 9 (Homo sapiens) for "NC(=O)c1nnn(-c2ccc(S(N)(=O)=O)cc2)c1-c1ccc(Br)cc1"
output: 0.256

input: Query Ki on Carbonic anhydrase 9 (Homo sapiens) for CC(=O)N1N=C(c2ccc(OS(N)(=O)=O)cc2)CC1c1cc(Cl)ccc1Cl (centres undefined)
output: 0.0255

input: Query Ki on Carbonic anhydrase 9 (Homo sapiens) for "C=C(C)/C=C/c1c(OC)c2c(c3ccc(=O)oc13)OC(C)(C)C=C2"
output: 0.62

input: Query Ki on Carbonic anhydrase 9 (Homo sapiens) for "Cc1ccc2c(c1)C(=O)CC1(CCN(c3ccc(S(N)(=O)=O)cc3[N+](=O)[O-])CC1)O2"
output: 3.55

input: Query Ki on Carbonic anhydrase 9 (Homo sapiens) for "Cc1ccc(-c2nn(-c3ccc(S(N)(=O)=O)cc3)cc2/C=N\Nc2nc(-c3cc4cc(Br)ccc4oc3=O)cs2)cc1"
output: 0.026

input: Query Ki on Carbonic anhydrase 9 (Homo sapiens) for "NS(=O)(=O)c1ccc(NC(=O)CN2CCOCC2)cc1"
output: 0.181

input: Query Ki on Carbonic anhydrase 9 (Homo sapiens) for "COC(=O)CS(=O)(=O)c1cc(Cl)c(C)cc1S(N)(=O)=O"
output: 1.84

input: Query Ki on Carbonic anhydrase 9 (Homo sapiens) for "CC(=O)OC[C@H]1O[C@@H](SCc2cn(-c3ccc(S(N)(=O)=O)cc3)nn2)[C@H](OC(C)=O)[C@@H](OC(C)=O)[C@H]1OC(C)=O"
output: 0.0086

input: Query Ki on Carbonic anhydrase 9 (Homo sapiens) for "COC(=O)C1=Cc2ccc(Cl)cc2OC(=O)C1"
output: 0.078

input: Query Ki on Carbonic anhydrase 9 (Homo sapiens) for "NS(=O)(=O)c1ccc(Cn2c(=O)c3cc4c(=O)n(Cc5ccc(S(N)(=O)=O)cc5)c(=O)c4cc3c2=O)cc1"
output: 0.639

input: Query Ki on Carbonic anhydrase 9 (Homo sapiens) for "COc1cc(S(N)(=O)=O)ccc1-c1noc(-c2cccs2)n1"
output: 0.0159

input: Query Ki on Carbonic anhydrase 9 (Homo sapiens) for "COc1ccc(NC(=O)c2ccc3c(c2)C(=O)N(Cc2ccc(S(N)(=O)=O)cc2)C3=O)c(C(=O)O)c1"
output: 0.036

input: Query Ki on Carbonic anhydrase 9 (Homo sapiens) for "CN(CS(=O)(=O)O)c1ccc(/N=N/c2cccc(S(N)(=O)=O)c2)cc1"
output: 0.063

input: Query Ki on Carbonic anhydrase 9 (Homo sapiens) for "CC(C)OC(=O)c1ccc(O)c(O)c1"
output: 0.8

* * *

Assay read-out log10 of Ki on Carbonic anhydrase 9 (Homo sapiens); records merged from the literature.
Use the decimal logarithm of Ki (nM).

MOLECULE: NS(=O)(=O)c1ccc2c(c1)C(=O)C(=O)N2Cc1cc(C(F)(F)F)ccc1F
SYSTEM TESTED: Carbonic anhydrase 9 (Homo sapiens)
OBSERVATION TYPE: log10 of Ki
RECORDED MEASUREMENT: 2.32

input: Query log10 of Ki on Carbonic anhydrase 9 (Homo sapiens) for CC(F)(Cl)CNS(=O)(=O)c1ccc(N)cc1 (stereo not drawn)
output: 3.39

input: Query log10 of Ki on Carbonic anhydrase 9 (Homo sapiens) for "O=c1cc(-c2ccccc2Cl)c2ccc(O)cc2o1"
output: 1.49

input: Query log10 of Ki on Carbonic anhydrase 9 (Homo sapiens) for "COc1cc(/C=C/C(=O)OCCc2cccc(O)c2)ccc1O"
output: 3.00

input: Query log10 of Ki on Carbonic anhydrase 9 (Homo sapiens) for "NS(=O)(=O)c1ccc(-n2nnc(-c3nnc(SCC(=O)c4cccc([N+](=O)[O-])c4)[nH]3)c2-c2ccccc2)cc1"
output: 2.28

input: Query log10 of Ki on Carbonic anhydrase 9 (Homo sapiens) for "NS(=O)(=O)c1ccc(CN2C(=O)c3cccc4cccc(c34)C2=O)cc1"
output: 2.03

input: Query log10 of Ki on Carbonic anhydrase 9 (Homo sapiens) for Cl.NS(=O)(=O)c1ccc(CCNC(=O)c2ccc(OCC(O)CN3CCOCC3)cc2)cc1 (stereo not drawn)
output: 0.85

* * *

Assay read-out Ki on UniProtKB Q16790; records merged from the literature.
Value expressed in nM; do not type the unit.

In the examples that follow, each entry is paired with its recorded Ki.
SMILES NOTATION: CC1=CC(=O)N(CC(=O)c2ccc([N+](=O)[O-])cc2)S(=O)(=O)O1
UNIT OF MEASUREMENT: nM
RECORDED MEASUREMENT: 2480

SMILES NOTATION: CCB(CC)OC(=O)[C@@H](N)CCCCNC(=S)NCc1ccc(S(N)(=O)=O)cc1
UNIT OF MEASUREMENT: nM
RECORDED MEASUREMENT: 9.5

SMILES NOTATION: NS(=O)(=O)c1ccc(CNC(=O)c2c(F)c(F)cc(F)c2F)cc1
UNIT OF MEASUREMENT: nM
RECORDED MEASUREMENT: 9.5

SMILES NOTATION: CC1=CC(=O)N(CC(=O)c2ccc(-c3ccccc3)cc2)S(=O)(=O)O1
UNIT OF MEASUREMENT: nM
RECORDED MEASUREMENT: 26

Next molecule, Ki to be filled in.
input: Consider the molecule shown here: "COc1ccc2cnn(-c3ccc(S(N)(=O)=O)cc3)c(=O)c2c1OC" What is its recorded Ki?
output: 8.9

* * *

Assay read-out Ki on Carbonic anhydrase 9 (Homo sapiens); records merged from the literature.
Value expressed in nM; do not type the unit.

MOLECULE: COn1c(=O)[nH]c2cc(Cl)ccc2c1=O
OBSERVATION TYPE: Ki
RECORDED MEASUREMENT: 208
//
MOLECULE: NS(=O)(=O)c1ccc(CNc2nc(Cl)nc(NC(Cc3ccc(O)c(O)c3)C(=O)O)n2)cc1 (racemic)
OBSERVATION TYPE: Ki
RECORDED MEASUREMENT: 95
//
MOLECULE: NS(=O)(=O)c1ccc(C(=O)NNCCC(=O)c2ccccc2)cc1
OBSERVATION TYPE: Ki
RECORDED MEASUREMENT: 45.3

Next molecule, Ki to be filled in.
input: Query Ki on Carbonic anhydrase 9 (Homo sapiens) for "C/C(=N\Nc1ccc(S(N)(=O)=O)cc1)c1ccc(N2CCCCC2)cc1"
output: 7.2

* * *

Assay read-out Ki on Carbonic anhydrase 9 (Homo sapiens, UniProt Q16790); records merged from the literature.
Value expressed in nM; do not type the unit.

In the examples that follow, each entry is paired with its recorded Ki.
MOLECULE: CN(C)c1ccc2c(-c3ccc(NC(=S)NCc4cn(-c5cccc(S(N)(=O)=O)c5)nn4)cc3C(=O)O)c3ccc(=[N+](C)C)cc-3oc2c1
RECORDED MEASUREMENT: 24.3
//
MOLECULE: NS(=O)(=O)c1ccc(-n2c(-c3ccc(Cl)cc3)n[nH]c2=S)cc1
RECORDED MEASUREMENT: 5.7
//
MOLECULE: NS(=O)(=O)c1ccc(C(=O)N2CCN(C(=O)c3ccccc3Br)CC2)cc1
RECORDED MEASUREMENT: 60.4
//
MOLECULE: Cc1cccc(C)c1N1C(=O)c2ccc(C(=O)OCc3cn(-c4ccc(S(N)(=O)=O)cc4)nn3)cc2C1=O
RECORDED MEASUREMENT: 24.5
//
MOLECULE: C/C(=N\Nc1ccc(S(N)(=O)=O)cc1)c1cc2ccccc2oc1=O
RECORDED MEASUREMENT: 58.6

input: Consider the molecule shown here: "NS(=O)(=O)Oc1ccc(Br)cc1" What is its recorded Ki?
output: 19

input: Consider the molecule shown here: "CCOc1ccc(S(=O)(=O)N2CCCC2)cc1-c1nnc2c(n1)c(C)nn2C" What is its recorded Ki?
output: 40.3

input: Consider the molecule shown here: "NS(=O)(=O)c1ccc(N/N=C2\SC(Nc3ccc(S(N)(=O)=O)cc3)=NC2=O)cc1" What is its recorded Ki?
output: 5.8

input: Consider the molecule shown here: "CCOc1ccc(S(=O)(=O)N[C@H](C)CC)cc1-c1nnc2c(n1)c(C)nn2-c1ccc(C)cc1" What is its recorded Ki?
output: 26.6

input: Consider the molecule shown here: CC(=O)N1N=C(c2cccc(OS(N)(=O)=O)c2)CC1c1cccc2ccccc12 (stereo not given) What is its recorded Ki?
output: 51.1

input: Consider the molecule shown here: "CCn1cc(S(N)(=O)=O)c2cc(NC(=O)c3cc(-c4ccc(OC)c(OC)c4)nc4ccccc34)ccc21" What is its recorded Ki?
output: 35800

input: Consider the molecule shown here: "NS(=O)(=O)c1cccc(/N=C2\NC(=O)CS2)c1" What is its recorded Ki?
output: 17.7
